Test: TOX21_p53_BLA_p3_viability: Viability Assessment in the Tox21 HCT-116 p53 Agonism Beta-lactamase Assay, Phase 3 (AID 2283593);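 also: cells exposed to compound for 16 h before reading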
Description: TOX21_p53_BLA_p3 is a cell-based, single-readout assay that uses HCT116, a human intestinal cell line, […] in a 1536-well plate.TOX21_p53_BLA_p3_viability is an assay readout measuring cellular ATP content and detected with CellTiter-Glo Luciferase-coupled ATP quantitation.TOX21_p53_BLA_p3_viability used a type of viability reporter where loss-of-signal activity can be used to understand changes in the cell viability. […]
Records with an inconclusive call do not appear. Activity calls are given as the source filed them. The calls were made as follows: active = hit-call score of the fitted dose curve at least 0.9, where 1 is the maximum; inconclusive = response in the unintended direction; inactive = score below 0.9.
Assign a class; possible classes are 1.0 for active, 0.0 for inactive

Exercise: # fetch the recorded call for C=C1CC2C3CCC4=CC(=O)C=C[C@]4(C)[C@@]3(F)[C@@H](O)C[C@]2(C)[C@@]1(O)C(=O)COC(C)=O (stereo partly drawn) here
Key: 0.0

Exercise: Which outcome was entered for the compound `COc1ccc(C2C(=O)c3ccccc3C2=O)cc1` in this test?
Key: 0.0

Exercise: Test call, this compound: `CC(=O)c1ccc2c(c1)N(CCCN1CCC(CCO)CC1)c1ccccc1S2`
Key: 0.0

Exercise: I would be grateful if you could indicate the recorded call for `NCCN1CCNC1=O` .
Key: 0.0

Exercise: Tell me the assay call for `O=C(O)c1cc(=O)c2c(OCC(O)COc3cccc4oc(C(=O)O)cc(=O)c34)cccc2o1` please.
Key: 0.0

Exercise: How did this test come out for `CCCCCCCCOc1ccccc1C(=O)Nc1ccc(C(=O)OCC[N+](C)(CC)CC)cc1` ?
Key: 1.0

Exercise: Please share the test call associated with `O=C(/C=C/c1ccc([N+](=O)[O-])cc1)c1ccccc1` .
Key: 0.0

Exercise: What outcome does the record of this test show for `CC1(C)[C@@H](O[C@H]2O[C@H](C(=O)O)[C@@H](O)[C@H](O)[C@H]2O[C@@H]2O[C@H](C(=O)O)[C@@H](O)[C@H](O)[C@H]2O)CC[C@]2(C)[C@H]3C(=O)C=C4[C@@H]5C[C@@](C)(C(=O)O)CC[C@]5(C)CC[C@@]4(C)[C@]3(C)CC[C@@H]12` ?
Key: 0.0

Value source: PubChem BioAssay (EPA / NIEHS)
